Source of measurements: ChEMBL document CHEMBL3124843

System: HCT-116
test_description: Cytostatic activity against p53-deficient human HCT116 cells after 72 hrs by MTT assay
Type: functional, cell-based
measurement_setup: HCT-116, 72 h
pIC50: −log10 of the molar value.
// reported pIC50 per item

Query :: Look up pIC50 for this compound: COc1nc(N)nc2c1c(-c1cc3ccccc3o1)cn2[C@@H]1O[C@H](CO)[C@@H](O)[C@H]1O
Result :: < 4.70

Query :: Request: Cc1nc(N)c2c(-c3ccccc3)cn([C@@H]3O[C@H](CO)[C@@H](O)[C@H]3O)c2n1
Result :: < 4.70

Query :: Request: Cc1nc(N)c2c(I)cn([C@@H]3O[C@H](CO)[C@@H](O)[C@H]3O)c2n1
Result :: < 4.70

Query :: Request: Nc1nc2c(c(-c3ccoc3)cn2[C@@H]2O[C@H](CO)[C@@H](O)[C@H]2O)c(=O)[nH]1
Result :: 4.75

Query :: Request: Nc1ncnc2c1c(-c1ccco1)cn2[C@@H]1O[C@H](CO)[C@@H](O)[C@H]1O
Result :: 6.77

Further cases:
Query :: Look up pIC50 for this compound: CN(C)c1ncnc2c1ccn2[C@@H]1O[C@H](CO)[C@@H](O)[C@H]1O
Result :: 5.29

* * *

Tested on: HCT-116
test_description: Cytostatic activity against p53-deficient human HCT116 cells after 72 hrs by MTT assay
Format: functional, cell-based
measurement_setup: HCT-116, 72 h
pIC50: −log10 of the molar value.
measurement_kind: pIC50

Query :: Look up pIC50 for this compound: O=c1[nH]cnc2c1c(-c1cccs1)cn2[C@@H]1O[C@H](CO)[C@@H](O)[C@H]1O
Result :: < 4.70

Query :: Request: CN(C)c1ncnc2c1c(-c1ccoc1)cn2[C@@H]1O[C@H](CO)[C@@H](O)[C@H]1O
Result :: < 4.70

Query :: Request: CNc1ncnc2c1c(-c1ccccc1)cn2[C@@H]1O[C@H](CO)[C@@H](O)[C@H]1O
Result :: < 4.00

Further cases:
Query :: Look up pIC50 for this compound: O=c1[nH]cnc2c1c(-c1ccsc1)cn2[C@@H]1O[C@H](CO)[C@@H](O)[C@H]1O
Result :: < 4.70

Query :: Request: Nc1nc(N)c2c(-c3ccoc3)cn([C@@H]3O[C@H](CO)[C@@H](O)[C@H]3O)c2n1
Result :: < 4.70

Query :: Request: CSc1ncnc2c1c(-c1ccsc1)cn2[C@@H]1O[C@H](CO)[C@@H](O)[C@H]1O
Result :: < 4.70

* * *

System: BJ
test_description: Cytostatic activity against human BJ cells after 72 hrs by MTT assay
Format: ADME, cell-based
// reported pIC50 per item
// returns pIC50 (minus log10 of molar concentration), number only

Previously resolved entries follow.
Query :: Look up pIC50 for this molecule: C#Cc1cn([C@@H]2O[C@H](CO)[C@@H](O)[C@H]2O)c2ncnc(NC)c12
Result :: 4.07

Query :: Request: COc1ncnc2c1c(-c1ccoc1)cn2[C@@H]1O[C@H](CO)[C@@H](O)[C@H]1O
Result :: 4.54

Query :: Request: CSc1ncnc2c1c(-c1ccco1)cn2[C@@H]1O[C@H](CO)[C@@H](O)[C@H]1O
Result :: 6.59

Further cases:
Query :: Look up pIC50 for this molecule: CN(C)c1ncnc2c1c(I)cn2[C@@H]1O[C@H](CO)[C@@H](O)[C@H]1O
Result :: 4.34

Query :: Request: C#Cc1cn([C@@H]2O[C@H](CO)[C@@H](O)[C@H]2O)c2ncnc(SC)c12
Result :: 4.16

Query :: Request: Cc1ncnc2c1c(-c1ccco1)cn2[C@@H]1O[C@H](CO)[C@@H](O)[C@H]1O
Result :: 7.15

* * *

// reported EC50 per item
Tested on: Hepatitis C virus
test_description: Antiviral activity against Hepatitis C virus subtype 1b infected in human HuH7 cells
Format: functional, organism-based, Hepacivirus hominis
measurement_setup: genotype 1b, Huh-7
Your answer is read as µM, so omit the unit and give the number.

Previously resolved entries follow.
Query :: Look up EC50 for this compound: CN(C)c1ncnc2c1c(-c1ccoc1)cn2[C@@H]1O[C@H](CO)[C@@H](O)[C@H]1O
Result :: 7.88

Query :: Request: Nc1nc(N)c2c(-c3cccs3)cn([C@@H]3O[C@H](CO)[C@@H](O)[C@H]3O)c2n1
Result :: 10

Query :: Request: Cc1ncnc2c1c(Br)cn2[C@@H]1O[C@H](CO)[C@@H](O)[C@H]1O
Result :: 12

Query :: Request: CSc1ncnc2c1c(-c1ccoc1)cn2[C@@H]1O[C@H](CO)[C@@H](O)[C@H]1O
Result :: 4.72

Query :: Request: Nc1nc2c(c(-c3ccoc3)cn2[C@@H]2O[C@H](CO)[C@@H](O)[C@H]2O)c(=O)[nH]1
Result :: 25.7

Further cases:
Query :: Look up EC50 for this compound: Nc1nc(N)c2c(-c3ccoc3)cn([C@@H]3O[C@H](CO)[C@@H](O)[C@H]3O)c2n1
Result :: 21.3

Query :: Request: CNc1ncnc2c1c(-c1cc3ccccc3o1)cn2[C@@H]1O[C@H](CO)[C@@H](O)[C@H]1O
Result :: 2.05

Query :: Request: CNc1ncnc2c1ccn2[C@@H]1O[C@H](CO)[C@@H](O)[C@H]1O
Result :: 0.82

* * *

Tested on: HCT-116
test_description: Cytostatic activity against p53-deficient human HCT116 cells after 72 hrs by MTT assay
Assay type: functional, cell-based
measurement_setup: HCT-116, 72 h
measurement_kind: IC50

Previously resolved entries follow.
Query :: Look up IC50 for this molecule: Nc1nc2c(c(-c3ccsc3)cn2[C@@H]2O[C@H](CO)[C@@H](O)[C@H]2O)c(=O)[nH]1
Result :: > 20 µM

Query :: Request: O=c1[nH]cnc2c1c(-c1ccoc1)cn2[C@@H]1O[C@H](CO)[C@@H](O)[C@H]1O
Result :: 14.8 µM

Query :: Request: CN(C)c1ncnc2c1c(-c1cccs1)cn2[C@@H]1O[C@H](CO)[C@@H](O)[C@H]1O
Result :: > 20 µM

Query :: Request: C#Cc1cn([C@@H]2O[C@H](CO)[C@@H](O)[C@H]2O)c2nc(N)nc(OC)c12
Result :: > 20 µM

Query :: Request: CSc1ncnc2c1c(I)cn2[C@@H]1O[C@H](CO)[C@@H](O)[C@H]1O
Result :: > 20 µM

Query :: Request: COc1ncnc2c1c(-c1ccccc1)cn2[C@@H]1O[C@H](CO)[C@@H](O)[C@H]1O
Result :: > 20 µM

Further cases:
Query :: Look up IC50 for this molecule: CSc1ncnc2c1c(-c1cccs1)cn2[C@@H]1O[C@H](CO)[C@@H](O)[C@H]1O
Result :: > 20 µM

Query :: Request: COc1ncnc2c1c(-c1ccsc1)cn2[C@@H]1O[C@H](CO)[C@@H](O)[C@H]1O
Result :: 0.14 µM

Query :: Request: CSc1ncnc2c1c(-c1cc3ccccc3o1)cn2[C@@H]1O[C@H](CO)[C@@H](O)[C@H]1O
Result :: > 20 µM

* * *

Tested on: K562
test_description: Cytostatic activity against human K562 cells after 72 hrs by MTT assay
Format: functional, cell-based
measurement_setup: K562, 72 h
measurement_kind: IC50

Previously resolved entries follow.
Query :: Look up IC50 for this compound: Nc1nc2c(c(-c3ccsc3)cn2[C@@H]2O[C@H](CO)[C@@H](O)[C@H]2O)c(=O)[nH]1
Result :: > 20 µM

Query :: Request: CN(C)c1ncnc2c1c(-c1ccccc1)cn2[C@@H]1O[C@H](CO)[C@@H](O)[C@H]1O
Result :: > 20 µM

Further cases:
Query :: Look up IC50 for this compound: Cc1ncnc2c1c(-c1cccs1)cn2[C@@H]1O[C@H](CO)[C@@H](O)[C@H]1O
Result :: > 20 µM

* * *

// reported EC50 per item
System: Hepatitis C virus
test_description: Antiviral activity against Hepatitis C virus subtype 1b infected in human HuH7 cells
Type: functional, organism-based, Hepacivirus hominis
measurement_setup: genotype 1b, Huh-7
Your answer is read as µM, so omit the unit and give the number.

Query :: Look up EC50 for this molecule: CN(C)c1ncnc2c1c(-c1ccsc1)cn2[C@@H]1O[C@H](CO)[C@@H](O)[C@H]1O
Result :: 38.4

Query :: Request: Cc1ncnc2c1c(-c1ccsc1)cn2[C@@H]1O[C@H](CO)[C@@H](O)[C@H]1O
Result :: 4.47

Query :: Request: CSc1ncnc2c1c(-c1ccsc1)cn2[C@@H]1O[C@H](CO)[C@@H](O)[C@H]1O
Result :: 10.9

Query :: Request: C#Cc1cn([C@@H]2O[C@H](CO)[C@@H](O)[C@H]2O)c2ncnc(C)c12
Result :: 0.23

Query :: Request: Cc1ncnc2c1c(-c1ccco1)cn2[C@@H]1O[C@H](CO)[C@@H](O)[C@H]1O
Result :: 0.07

Query :: Request: C#Cc1cn([C@@H]2O[C@H](CO)[C@@H](O)[C@H]2O)c2nc(C)nc(N)c12
Result :: 8

Query :: Request: Cc1ncnc2c1ccn2[C@@H]1O[C@H](CO)[C@@H](O)[C@H]1O
Result :: 0.02

// next entry
Query :: Look up EC50 for this molecule: Cc1nc(N)c2c(-c3ccsc3)cn([C@@H]3O[C@H](CO)[C@@H](O)[C@H]3O)c2n1
Result :: 28.7
